STUDY_TARGET: HLA-A*03:01
EXPERIMENTAL_DETAILS: IEDB peptide-MHC binding, purified MHC/direct/fluorescence; filed as Kd, often an IC50 or EC50 that approximates it; bounds were set here for any values at or beyond the usual limits of such assays
SETUP_CONDITIONS: source organism: Sudan ebolavirus - Maleo (1979)
READOUT_LABEL: Kd

1) MHYKLDEVL: ≥ 20 µM

* * *

STUDY_TARGET: HLA-A*01:01
EXPERIMENTAL_DETAILS: IEDB peptide-MHC binding, purified MHC/direct/fluorescence; filed as Kd, often an IC50 or EC50 that approximates it; bounds were set here for any values at or beyond the usual limits of such assays
SETUP_CONDITIONS: source organism: Escherichia coli
pKd: −log10 of the molar value.
READOUT_LABEL: pKd

1) SHDTIGPYY: ≤ 4.70

* * *

STUDY_TARGET: HLA-B*07:02
EXPERIMENTAL_DETAILS: IEDB peptide-MHC binding, purified MHC/direct/fluorescence; filed as Kd, often an IC50 or EC50 that approximates it; bounds were set here for any values at or beyond the usual limits of such assays
SETUP_CONDITIONS: source organism: Escherichia coli O157:H7
Each record here notes measured Kd.
READOUT_LABEL: Kd

1. YECTSRHFT: ≥ 20 µM
2. EEDAAVDDL: ≥ 20 µM

* * *

STUDY_TARGET: HLA-A*26:01
EXPERIMENTAL_DETAILS: IEDB peptide-MHC binding, purified MHC/competitive/radioactivity; filed as Kd, often an IC50 or EC50 that approximates it; bounds were set here for any values at or beyond the usual limits of such assays
SETUP_CONDITIONS: source organism: Dengue virus 3 Sri Lanka/1266/2000
pKd: −log10 of the molar value.
READOUT_LABEL: pKd

1) TVAAMGVPPL: 4.91

* * *

STUDY_TARGET: HLA-A*01:01
EXPERIMENTAL_DETAILS: IEDB peptide-MHC binding, purified MHC/direct/fluorescence; filed as Kd, often an IC50 or EC50 that approximates it; bounds were set here for any values at or beyond the usual limits of such assays
SETUP_CONDITIONS: source organism: Yellow fever virus 17D
READOUT_LABEL: Kd

1) VRGGMVAPL: ≥ 20 µM

* * *

STUDY_TARGET: HLA-A*31:01
EXPERIMENTAL_DETAILS: IEDB peptide-MHC binding, purified MHC/competitive/radioactivity; filed as Kd, often an IC50 or EC50 that approximates it; bounds were set here for any values at or beyond the usual limits of such assays
SETUP_CONDITIONS: source organism: Dengue virus 1 Singapore/S275/1990
pKd: −log10 of the molar value.
READOUT_LABEL: pKd

1. ISNMLNIMNR: ≤ 4.42

* * *

STUDY_TARGET: HLA-A*23:01
EXPERIMENTAL_DETAILS: IEDB peptide-MHC binding, purified MHC/competitive/fluorescence; filed as Kd, often an IC50 or EC50 that approximates it; bounds were set here for any values at or beyond the usual limits of such assays
SETUP_CONDITIONS: source organism: Streptococcus pneumoniae TIGR4
READOUT_LABEL: Kd

1. CLSDEINHV: ≥ 20 µM

* * *

Each record here notes measured Kd.
STUDY_TARGET: HLA-A*30:02
EXPERIMENTAL_DETAILS: IEDB peptide-MHC binding, purified MHC/competitive/radioactivity; filed as Kd, often an IC50 or EC50 that approximates it; bounds were set here for any values at or beyond the usual limits of such assays
SETUP_CONDITIONS: source organism: Lymphocytic choriomeningitis virus (strain Armstrong)
READOUT_LABEL: Kd (µM)

1) DSEEYHLLY: 3.75
2) QYVRSGKDHV: 1.44
3) KTGESSRCY: 0.101
4) QFIHFYREPV: 5.15

* * *

Each record here notes measured Kd.
STUDY_TARGET: HLA-A*11:01
EXPERIMENTAL_DETAILS: IEDB peptide-MHC binding, purified MHC/direct/fluorescence; filed as Kd, often an IC50 or EC50 that approximates it; bounds were set here for any values at or beyond the usual limits of such assays
SETUP_CONDITIONS: source organism: Camelpox virus M-96
READOUT_LABEL: Kd

1) LLRDKDGVY: ≥ 20 µM
2) WENGFKVVL: ≥ 20 µM

* * *

STUDY_TARGET: HLA-B*57:01
EXPERIMENTAL_DETAILS: IEDB peptide-MHC binding, purified MHC/direct/fluorescence; filed as Kd, often an IC50 or EC50 that approximates it; bounds were set here for any values at or beyond the usual limits of such assays
SETUP_CONDITIONS: source organism: Giardia lamblia ATCC 50803
pKd: −log10 of the molar value.
READOUT_LABEL: pKd

1. IARLVYKAR: ≤ 4.70
2. EIRHRSGIQ: ≤ 4.70

* * *

STUDY_TARGET: HLA-A*03:01
EXPERIMENTAL_DETAILS: IEDB peptide-MHC binding, purified MHC/direct/fluorescence; filed as Kd, often an IC50 or EC50 that approximates it; bounds were set here for any values at or beyond the usual limits of such assays
SETUP_CONDITIONS: source organism: Bacillus licheniformis
pKd: −log10 of the molar value.
READOUT_LABEL: pKd

1. VQIPEKKCF: ≤ 4.70

* * *

STUDY_TARGET: HLA-B*57:01
EXPERIMENTAL_DETAILS: IEDB peptide-MHC binding, purified MHC/competitive/fluorescence; filed as Kd, often an IC50 or EC50 that approximates it; bounds were set here for any values at or beyond the usual limits of such assays
SETUP_CONDITIONS: source organism: Salmonella enterica subsp. enterica serovar Typhimurium str. LT2
READOUT_LABEL: Kd

1. ILNSDDEQA: ≥ 20 µM

* * *

STUDY_TARGET: HLA-B*44:02
EXPERIMENTAL_DETAILS: IEDB peptide-MHC binding, purified MHC/direct/fluorescence; filed as Kd, often an IC50 or EC50 that approximates it; bounds were set here for any values at or beyond the usual limits of such assays
SETUP_CONDITIONS: source organism: Giardia lamblia ATCC 50803
READOUT_LABEL: Kd

1) WSDLNTTDF: ≥ 20 µM

* * *

STUDY_TARGET: HLA-B*08:02
EXPERIMENTAL_DETAILS: IEDB peptide-MHC binding, purified MHC/direct/fluorescence; filed as Kd, often an IC50 or EC50 that approximates it; bounds were set here for any values at or beyond the usual limits of such assays
SETUP_CONDITIONS: source organism: Salmonella enterica subsp. enterica serovar Typhimurium str. LT2
pKd: −log10 of the molar value.
READOUT_LABEL: pKd

1. EIIFYHPTF: ≤ 4.70

* * *

STUDY_TARGET: HLA-B*58:01
EXPERIMENTAL_DETAILS: IEDB peptide-MHC binding, purified MHC/direct/fluorescence; filed as Kd, often an IC50 or EC50 that approximates it; bounds were set here for any values at or beyond the usual limits of such assays
SETUP_CONDITIONS: source organism: Influenza B virus
READOUT_LABEL: Kd (µM)

1) KSEPEGTRM: 19.7

* * *

STUDY_TARGET: HLA-A*03:01
EXPERIMENTAL_DETAILS: IEDB peptide-MHC binding, purified MHC/competitive/radioactivity; filed as Kd, often an IC50 or EC50 that approximates it; bounds were set here for any values at or beyond the usual limits of such assays
SETUP_CONDITIONS: source organism: Vaccinia virus WR
pKd: −log10 of the molar value.
Quick rule: pKd of at least 7 means 1 (yes), below that means 0 (no).

1. SIHLTKTDK: 1 (yes)
2. KAMLYIIRR: 0 (no)
3. DLTQIFEVY: 0 (no)
4. EVRIPVDLVK: 0 (no)
5. ALDGTFQRK: 1 (yes)
6. LMYALEPRK: 1 (yes)
7. LISLNSMYTR: 0 (no)
8. HLTKTDKKY: 0 (no)
9. IILANERYR: 0 (no)
10. FAYVMNIER: 0 (no)
11. YITDDSDDY: 0 (no)
12. SVSAKQLRTR: 0 (no)
13. LLKILDNLR: 0 (no)
14. SVSIILANER: 0 (no)
15. NVTLFYCDER: 0 (no)
16. MVIENGILKK: 1 (yes)
17. DTSYYVKEY: 0 (no)

* * *

STUDY_TARGET: HLA-B*08:03
EXPERIMENTAL_DETAILS: IEDB peptide-MHC binding, purified MHC/direct/fluorescence; filed as Kd, often an IC50 or EC50 that approximates it; bounds were set here for any values at or beyond the usual limits of such assays
SETUP_CONDITIONS: source organism: Giardia lamblia ATCC 50803
READOUT_LABEL: Kd

1) EIRHRSGIQ: ≥ 20 µM
2) IARLVYKAR: ≥ 20 µM
